# ASSAY REMARKS: Solubility of pesticide samples in solvents (equilibration, 25 C, HPLC analysis)
# Assay type: physicochemical
# SETTINGS: comparison in words, dimethyl lactamide versus the other two solvents
OBSERVATION TYPE: Solubility in dimethyl lactamide compared with Solvesso 200ND or acetophenone

- COMPOUND: "N#Cc1c[nH]cc1-c1cccc2c1OC(F)(F)O2"
  RECORDED VALUE: "better"
- COMPOUND: "CN1COCN(Cc2cnc(Cl)s2)/C1=N\\[N+](=O)[O-]"
  RECORDED VALUE: "better"
- COMPOUND: "N#Cc1c(Cl)c(Cl)c(Cl)c(C#N)c1Cl"
  RECORDED VALUE: "lower"
- COMPOUND: "CC(C)C1C2CCC1c1c(NC(=O)c3cn(C)nc3C(F)F)cccc12 (stereo not shown)"
  RECORDED VALUE: "better"
